Values compiled from PubChem BioAssay (NCI).

Tested on: UACC-62 melanoma
test.description: NCI tumour cell line growth inhibition, 48 h
measure: TGI

Past entries and their recorded results:
COc1cc(NC(=O)NCc2ccco2)ccc1-c1ccc(NC(=O)NCc2ccco2)cc1OC    5.18 µM
O=C(c1ccc(O)c([N+](=O)[O-])c1)c1ccc(O)c([N+](=O)[O-])c1    > 100 µM
Fc1ccc2c(c1)C1=C(CO2)C(c2ccc(Cl)cc2)NC(=S)N1 (stereo unspecified)    63.7 µM

For each listed entry, give its TGI.
1. COc1cc(/C=C\c2ccc(Br)cc2)cc(OC)c1OC
2. CC(=O)/C=C1\CC(=O)Nc2ccccc2N1
3. O=C(CCSc1ccnc2c(C(F)(F)F)cccc12)N/N=C/c1cc(Cl)c(Cl)cc1Cl

Output line:
1. > 100 µM
2. > 100 µM
3. 39.7 µM

For each listed entry, give its TGI.
1. O=C(CSc1nnc(-c2ccc(N=Cc3ccc(Cl)cc3)cc2)o1)Nc1ccc([N+](=O)[O-])cc1
2. CCOC(=O)N1C(c2ccccc2)C=CC(c2ccccc2)N1C(=O)OCC (stereo unspecified)
3. COC12CCC(C(C(=O)c3ccccc3)=C1C(=O)c1ccccc1)C(O)C2 (stereo unspecified)
4. Cc1ncc(CCl)c(CCl)c1O

Output line:
["42.4 µM", "> 100 µM", "> 100 µM", "> 100 µM"]

Input line: Query the reported TGI for UACC-62 melanoma; item: NC(=Nc1ccccc1)c1ccccc1N
Output line: > 100 µM

* * *

System: COLO 205 colon
test.description: NCI tumour cell line growth inhibition, 48 h; in the data active means GI50 below about 0.43 µM; inactive means the rest
Field 'call' accepts yes (1) (active), no (0) (inactive)

Nc1c(C(=O)N/N=C/c2ccc(-c3cc(Cl)c(Cl)cc3Cl)o2)cnn1-c1ccnc2c(C(F)(F)F)cccc12    no (0)
O=C(N/N=C/c1ccc(Cl)cc1Cl)c1ccc2nc(-c3ccc(Cl)cc3)[nH]c2c1    no (0)
Fc1ccc2c(c1)C1=C(CO2)C(c2ccc(Cl)cc2)NC(=S)N1 (stereo not given)    no (0)
COc1c(Cl)ccc2c(-c3nc4cc(Cl)c(F)cc4s3)cc(=O)oc12    no (0)
COC(=O)[C@H](C)NC(=O)[C@@H](OC)[C@@H]1Cc2cc3cc(OC4CC(OC5CC(O)C(O)C(C)O5)C(O)C(C)O4)c(C)c(O)c3c(O)c2C(=O)[C@H]1OC1CC(OC2CC(OC3CC(C)(O)C(O)C(C)O3)C(O)C(C)O2)C(O)C(C)O1 (stereo not given in full)    yes (1)

Input line: Write down the call the test reported for this molecule. Item: CC(C)C[C@H](NC(=O)CCn1ccc2ncccc2c1=O)B(O)O
Output line: no (0)

Input line: Write down the call the test reported for this molecule. Item: COc1cc(F)c(/C=C/c2cc(/C=C/c3cc(OC)c(OC)cc3F)n(-c3cc(F)cc(F)c3)n2)cc1OC
Output line: no (0)

Input line: Write down the call the test reported for this molecule. Item: Cc1nc2c(N3CCCC3)nc(N3CCNCC3)nc2nc1NCc1ccccc1
Output line: no (0)

Input line: Write down the call the test reported for this molecule. Item: Clc1ccc(CNc2nccc(-c3cnn4ncccc34)n2)cc1
Output line: no (0)

Input line: Write down the call the test reported for this molecule. Item: O=c1oc2c3ccc4cnccc4c3[nH]c2c2ccccc12
Output line: no (0)

Input line: Write down the call the test reported for this molecule. Item: N#C/C(=C\c1c(-c2ccccc2)[nH]c2ccccc12)C(=O)c1ccccc1
Output line: no (0)
